# assayText: ATG_AP_1_CIS: Attagene CIS-FACTORIAL HepG2 Assay for human Activator Protein 1 (AP-1) (AID 2282931)
# setupConditions: HepG2 Attagene cis-factorial AP-1 reporter mRNA; actives raise or lower the signal
Calls of active or inactive are those of the source. Rule for the calls: active = hit-call score of the fitted dose curve at least 0.9, where 1 is the maximum; inactive = score below 0.9.
Permitted responses: active, inactive

Solved cases (4 shown):
molecule=CCC(=O)Oc1ccc(/C(CC)=C(\CC)c2ccc(OC(=O)CC)cc2)cc1 assignedlabel=active
molecule="CC(C)(C)C1CCCCC1=O (stereo not drawn)" assignedlabel=inactive
molecule=Nc1ncn([C@@H]2O[C@H](CO)[C@@H](O)[C@H]2O)c(=O)n1 assignedlabel=inactive
molecule="CC(=O)OCC(C)OC(C)=O (stereo not drawn)" assignedlabel=inactive

Task: Each molecule tested received a call. Report the one for `C=C1[C@H]2CC[C@@H]3[C@H]2C(C)(C)CCC[C@]13C` .
Result: inactive

Task: Recorded test call requested for CCCCC(CC)COC(=O)c1ccccc1 (stereo not drawn)
Result: inactive

Task: So what was the verdict on `CC(=O)[C@H]1[C@H](C#N)C[C@H]2[C@@H]3CC=C4C[C@@H](O)CC[C@]4(C)[C@H]3CC[C@@]21C` in this test?
Result: inactive

Task: Record request — test call for `CCCCCCCC/C=C\CCCCCCCC(=O)OCCO`
Result: active

Task: What did the test return for `CC(=O)OCCC1CCCCC1` ?
Result: inactive

Task: What outcome does the record of this test show for `CCCCCCCCCCc1ccccc1` ?
Result: inactive

Task: Which outcome was assigned to `O=[N+]([O-])C1(Br)COCOC1` in this test?
Result: inactive
